Molecular target: T1, HCV Core1-169 (hepatitis C virus (HCV-1), UniProt P26664 1-169)
T1 sequence: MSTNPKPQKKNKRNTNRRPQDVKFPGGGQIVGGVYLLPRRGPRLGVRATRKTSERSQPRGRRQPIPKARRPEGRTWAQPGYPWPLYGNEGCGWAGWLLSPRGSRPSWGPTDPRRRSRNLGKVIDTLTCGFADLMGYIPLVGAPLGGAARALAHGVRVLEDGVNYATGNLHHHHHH
Assay: SPR sandwich, capture mAb C11-7
Provide the recorded expected percent binding for the entries that follow.
Your answer should be a plain number; it is taken to be in %.

Task item: If you can, please state the reported expected percent binding value of HCV 208B-178 (antibody, V domains shown) VH: DVKLVESGGGLVKLGGSLKLSCAASGFTFSSYYMSWVRQTPEKRLELVAAINSNGGSTYYPDTVKGRFTISRDNAKNTLYLQMSSLKSEDTALYYCARHGGLGRRDWYFDVWGAGTTVTVSS VL: DIVLTQSPASLAVSLGQRATISCRASESVDNYGISFMHWYQQKPGQPPKLLIYRASNLESGIPARFSGSGSRTDFTLTINPVETDDVATYYCQQSNKDPFTFGSGAKLEIKR .
Reply: 1.7

Task item: If you can, please state the reported expected percent binding value of HCV 208A-741 (antibody, V domains shown) VH: QLQQSGPVLVKPGASVMISCKTSGYTFTENAMHWVKQSHGKSLEWIGGVNPNNGDTIFNQKFKGKATLTVDKSSSTAFMELRSLTSEESTVYYCVRRELDFFDYWGQGTSVTVSS VL: DIVLTQSPASLAVSLGQRTTISCGASQSVSTSRFSYMHWYQQKPGQPPKLLIKYASNLESGVPARFSGSGSGTDFTLNIHPVAEEDTAAYYCQHSWEFPFTFGSGTKLEIKR .
Reply: 22.7

Where these numbers come from: patent US20170052184A1
